Values compiled from patent US20130251703A1.

Item-by-item account of SK-Br-3 pHER3 IC50
Molecular target: human HER3 endogenously expressed on human cancer cells (SK-Br-3, BT-474, MCF7) (human, UniProt P21860 20-1342)
Assay: cell-based or functional assay
# value in pM; strip the unit string

Fill in: SK-Br-3 pHER3 IC50 of MOR12606 (antibody, human IgG1, kappa, V domains shown, Tested as IgG) VH: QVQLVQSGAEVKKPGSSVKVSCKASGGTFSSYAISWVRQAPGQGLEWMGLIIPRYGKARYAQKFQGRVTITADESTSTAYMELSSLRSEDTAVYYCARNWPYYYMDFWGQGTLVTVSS VL: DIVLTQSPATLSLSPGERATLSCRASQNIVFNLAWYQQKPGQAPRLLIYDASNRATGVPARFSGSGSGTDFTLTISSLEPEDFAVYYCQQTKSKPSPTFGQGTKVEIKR is ___ 25

Given MOR13667 (antibody, human IgG1, lambda, V domains shown) VH: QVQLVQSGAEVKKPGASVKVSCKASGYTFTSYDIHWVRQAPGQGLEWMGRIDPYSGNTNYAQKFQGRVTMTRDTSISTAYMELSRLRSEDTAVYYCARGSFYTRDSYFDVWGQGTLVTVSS VL: DIALTQPASVSGSPGQSITISCTGTSSDVGTYNQVSWYQQHPGKAPKLMIYGVSKRPSGVSNRFSGSKSGNTASLTISGLQAEDEADYYCQAWDYRQTIVFGGGTKLTVLG , state its recorded SK-Br-3 pHER3 IC50. 267

Field request: SK-Br-3 pHER3 IC50 | item: MOR13663 (antibody, human IgG1, lambda, V domains shown) VH: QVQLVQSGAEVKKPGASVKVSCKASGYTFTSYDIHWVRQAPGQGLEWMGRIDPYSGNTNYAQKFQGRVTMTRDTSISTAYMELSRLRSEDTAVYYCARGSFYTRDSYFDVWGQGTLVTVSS VL: DIALTQPASVSGSPGQSITISCTGTSSDVGTYNQVSWYQQHPGKAPKLMIYGVSKRPSGVSNRFSGSKSGNTASLTISGLQAEDEADYYCSVWTSIKVFVFGGGTKLTVLG 290

Recorded SK-Br-3 pHER3 IC50 for MOR12603 (antibody, human IgG1, kappa, V domains shown, Tested as IgG) VH: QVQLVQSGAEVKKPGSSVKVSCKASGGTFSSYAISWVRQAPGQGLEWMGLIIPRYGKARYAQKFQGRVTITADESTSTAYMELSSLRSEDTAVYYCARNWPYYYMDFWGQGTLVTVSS VL: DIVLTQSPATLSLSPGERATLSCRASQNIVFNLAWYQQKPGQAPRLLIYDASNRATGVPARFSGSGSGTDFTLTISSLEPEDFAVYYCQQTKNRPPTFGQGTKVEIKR , please? 18

Entry under review: MOR13662 (antibody, human IgG1, lambda, V domains shown) VH: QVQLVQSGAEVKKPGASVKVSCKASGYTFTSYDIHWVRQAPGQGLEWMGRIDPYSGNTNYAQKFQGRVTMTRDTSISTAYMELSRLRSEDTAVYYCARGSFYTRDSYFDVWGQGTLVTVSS VL: DIALTQPASVSGSPGQSITISCTGTSSDVGTYNQVSWYQQHPGKAPKLMIYGVSKRPSGVSNRFSGSKSGNTASLTISGLQAEDEADYYCYSRAKTHWTDVFGGGTKLTVLG . Reported SK-Br-3 pHER3 IC50? 331
